# Test system: NCI-H1650
# assay details: relative viability (nuclei count vs DMSO), 5 days (fraction); higher = more cells survive
# reported conditions: first compound 2 µM
measure: relative viability
Enter the number alone.

compound	relative viability
Cc1csc(=NC2CCCCC2)n1/N=C/c1ccc(O)c(O)c1O [MIM1] + COc1cccc2cc(-c3nc([C@H]4CC[C@H](C(=O)O)CC4)n4ncnc(N)c34)[nH]c12 [OSI-027] (partner 0.5 µM)	0.447

Fill blank: measured relative viability of the compound CN1CCN(CCOc2cc(OC3CCOCC3)c3c(Nc4c(Cl)ccc5c4OCO5)ncnc3c2)CC1 [Saracatinib] + CS(=O)(=O)N1CCN(Cc2cc3nc(-c4cccc5[nH]ncc45)nc(N4CCOCC4)c3s2)CC1 [Pictilisib] (partner 1 µM) is ____.
0.314

meta.source: the supplement of paper PMC10307832
